- TARGET_SYSTEM: Physarum NOS form B (clone B+; physnosb) (Badhamia polycephala)
- ASSAY_REMARKS: radiometric citrulline NOS assay
Answer each item with its documented pIC50.
Remember the convention: pIC50 equals -log10 of concentration in molar.

Lab book: pIC50 of N=C(NCCC[C@H](N)C(=O)O)N[N+](=O)[O-] noted as 4.40

Lab book: pIC50 of CC(=N)NCCCC[C@H](N)C(=O)O noted as 4.12

Lab book: pIC50 of CNC(=N)NCCC[C@H](N)C(=O)O noted as 4.35

----------
- TARGET_SYSTEM: Physarum NOS form A (clone A1; physnosa) (Badhamia polycephala, UniProt A6XKZ4)
- ASSAY_REMARKS: radiometric citrulline NOS assay
EXPERIMENTAL_READOUT: EC50
# do not omit the unit; it follows the number

Lab book: EC50 of Cc1cc2nc3c(=O)[nH]c(=O)nc-3n(C[C@H](O)[C@H](O)[C@H](O)COP(=O)(O)O)c2cc1C noted as 1.7 µM

Lab book: EC50 of NC(=O)C1=CN([C@@H]2O[C@H](COP(=O)(O)OP(=O)(O)OC[C@H]3O[C@@H](n4cnc5c(N)ncnc54)[C@H](OP(=O)(O)O)[C@@H]3O)[C@@H](O)[C@H]2O)C=CC1 noted as 57.2 µM

Lab book: EC50 of C[C@H](O)[C@H](O)[C@H]1CNc2nc(N)[nH]c(=O)c2N1 [H4-bip, 6R-5,6,7,8-tetrahydro-L-biopterin] noted as 7.9 µM

Lab book: EC50 of Cc1cc2nc3c(=O)[nH]c(=O)nc-3n(C[C@H](O)[C@H](O)[C@H](O)COP(=O)(O)OP(=O)(O)OC[C@H]3O[C@@H](n4cnc5c(N)ncnc54)[C@H](O)[C@@H]3O)c2cc1C noted as 3.9 µM

----------
- TARGET_SYSTEM: Physarum NOS form A (clone A1; physnosa) (Badhamia polycephala)
- ASSAY_REMARKS: radiometric citrulline NOS assay
Answer each item with its documented IC50.
The answer is to be given in µM; state only the numeric part.

Lab book: IC50 of CC(=N)NCCCC[C@H](N)C(=O)O noted as 81.3

Lab book: IC50 of N=C(NCCC[C@H](N)C(=O)O)N[N+](=O)[O-] noted as 25.7

Lab book: IC50 of CNC(=N)NCCC[C@H](N)C(=O)O noted as 45.2

----------
- TARGET_SYSTEM: Physarum NOS form B (clone B+; physnosb) (Badhamia polycephala, UniProt A6XKZ6)
- ASSAY_REMARKS: radiometric citrulline NOS assay
- Format: biochemical
Answer each item with its documented pEC50.
Remember the convention: pEC50 equals -log10 of concentration in molar.

Lab book: pEC50 of Cc1cc2nc3c(=O)[nH]c(=O)nc-3n(C[C@H](O)[C@H](O)[C@H](O)COP(=O)(O)OP(=O)(O)OC[C@H]3O[C@@H](n4cnc5c(N)ncnc54)[C@H](O)[C@@H]3O)c2cc1C [FAD] noted as 5.68

Lab book: pEC50 of C[C@H](O)[C@H](O)[C@H]1CNc2nc(N)[nH]c(=O)c2N1 [H4-bip, 6R-5,6,7,8-tetrahydro-L-biopterin] noted as 6.15

Lab book: pEC50 of Cc1cc2nc3c(=O)[nH]c(=O)nc-3n(C[C@H](O)[C@H](O)[C@H](O)COP(=O)(O)O)c2cc1C [FMN] noted as 6.70

Lab book: pEC50 of NC(=O)C1=CN([C@@H]2O[C@H](COP(=O)(O)OP(=O)(O)OC[C@H]3O[C@@H](n4cnc5c(N)ncnc54)[C@H](OP(=O)(O)O)[C@@H]3O)[C@@H](O)[C@H]2O)C=CC1 [NADPH] noted as 4.22

Where do these numbers come from? They come from paper PMC2677215.
